# System: 292921-168-R-J2-PDC complex spheroid viability
# RUN DESCRIPTION: Anticancer human tumor 292921-168-R-J2-PDC patient-derived pancreatic carcinoma cell line growth inhibition; active means viability on the fitted dose curve at most 10% of control; inactive means the rest
# TEST SETTINGS: compound 0.1 µM
Field 'call' accepts True = active, False = inactive

>  <MOLECULE>
NC1CC1c1ccc(-c2cccc(O)c2)cc1 (centres undefined)

>  <SYSTEM>
292921-168-R-J2-PDC complex spheroid viability

>  <DISCRETE LABEL>
False

$$$$
>  <MOLECULE>
CC(C)CC(NC(=O)C(Cc1ccccc1)NC(=O)c1cnccn1)B(O)O (centres undefined)

>  <SYSTEM>
292921-168-R-J2-PDC complex spheroid viability

>  <DISCRETE LABEL>
True

$$$$

Prompt: Could you kindly confirm the outcome this assay logged for NC1CCC(NC2CC2c2ccccc2)CC1 (centres undefined) ?
Completion: False

Prompt: Could you kindly confirm the outcome this assay logged for CC1(C)CCC(CN2CCN(c3ccc(C(=O)NS(=O)(=O)c4ccc(NCC5CCOCC5)c([N+](=O)[O-])c4)c(Oc4cnc5[nH]ccc5c4)c3)CC2)=C(c2ccc(Cl)cc2)C1 ?
Completion: False

====

# Tested on: 292921-168-R-J2-PDC complex spheroid viability
# RUN DESCRIPTION: Anticancer human tumor 292921-168-R-J2-PDC cell line growth inhibition;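 further: seven day compound exposure before luminescent viability read; 100% = DMSO vehicle control wells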
# TEST SETTINGS: second compound 10 µM; first compound 0.000316 µM; active compounds read low
Below is a list of entries, each paired with its recorded viability, T/C value.

The cases that follow already have their viability, T/C on record.
>  <COMPOUND>
CC(C)CC(NC(=O)CNC(=O)c1cc(Cl)ccc1Cl)B1OC(=O)CC(CC(=O)O)(C(=O)O)O1 (centres undefined) + NC1CC1c1ccc(-c2cccc(O)c2)cc1

>  <SYSTEM>
292921-168-R-J2-PDC complex spheroid viability

>  <viability, T/C>
61.6%

$$$$
>  <COMPOUND>
CC(C)CC(NC(=O)CNC(=O)c1cc(Cl)ccc1Cl)B1OC(=O)CC(CC(=O)O)(C(=O)O)O1 (centres undefined) + NC1CCC(NC2CC2c2ccccc2)CC1

>  <SYSTEM>
292921-168-R-J2-PDC complex spheroid viability

>  <viability, T/C>
58.6%

$$$$

Prompt: Endpoint output: viability, T/C of CC[C@@]1(O)C(=O)OCc2c1cc1n(c2=O)Cc2cc3c(CN(C)C)c(O)ccc3nc2-1 + NC1CC1c1ccc(-c2cccc(O)c2)cc1 . Value?
Completion: 50.7%

Prompt: Endpoint output: viability, T/C of CC[C@@]1(O)C(=O)OCc2c1cc1n(c2=O)Cc2cc3c(CN(C)C)c(O)ccc3nc2-1 + NC1CCC(NC2CC2c2ccccc2)CC1 . Value?
Completion: 51.4%

====

# System: 292921-168-R-J2-PDC complex spheroid viability
# RUN DESCRIPTION: Anticancer human tumor 292921-168-R-J2-PDC cell line growth inhibition;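 further: seven day compound exposure before luminescent viability read; 100% = DMSO vehicle control wells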
# TEST SETTINGS: second compound 10 µM; first compound 0.949 µM; active compounds read low
Returns: string. Value is true (1) if measured viability, T/C is below 2%, and false (0) if it is greater than or equal to it.

Use these answered entries as a reference point.
>  <COMPOUND>
NS(=O)(=O)OCC1CC(n2ccc3c(NC4CCc5ccccc54)ncnc32)CC1O (stereo not given) + NC1CC1c1ccc(-c2cccc(O)c2)cc1

>  <DISCRETE LABEL>
false (0)

$$$$
>  <COMPOUND>
CCN(c1cc(-c2ccc(CN3CCOCC3)cc2)cc(C(=O)NCc2c(C)cc(C)[nH]c2=O)c1C)C1CCOCC1 + NC1CC1c1ccc(-c2cccc(O)c2)cc1

>  <DISCRETE LABEL>
false (0)

$$$$
>  <COMPOUND>
O=C(C=Cc1cccc(S(=O)(=O)Nc2ccccc2)c1)NO + NC1CCC(NC2CC2c2ccccc2)CC1

>  <DISCRETE LABEL>
true (1)

$$$$
>  <COMPOUND>
COc1cc(C2c3cc4c(cc3C(OC3OC5COC(C)OC5C(O)C3O)C3COC(=O)C23)OCO4)cc(OC)c1O (stereo not given) + NC1CC1c1ccc(-c2cccc(O)c2)cc1

>  <DISCRETE LABEL>
false (0)

$$$$
>  <COMPOUND>
NS(=O)(=O)OCC1CC(n2ccc3c(NC4CCc5ccccc54)ncnc32)CC1O (stereo not given) + NC1CCC(NC2CC2c2ccccc2)CC1

>  <DISCRETE LABEL>
true (1)

$$$$

Prompt: Lab note: viability, T/C threshold 2%. Does this compound come in strictly under it? Nc1ccccc1NC(=O)c1ccc(CNC(=O)OCc2cccnc2)cc1 + NC1CC1c1ccc(-c2cccc(O)c2)cc1
Completion: false (0)

// provenance: PubChem BioAssay AID1918934
